experimentalDetails: NCI Yeast Anticancer Drug Screen. Data for the mlh1 rad18 strain (AID 175)
runConditions: S. cerevisiae mlh1 rad18 strain growth inhibition; at 50.0 µM; hits give high values
The panel holds about 79,000 compounds, 15% with a hit somewhere; the sample as a whole holds those more often.
Threshold check on growth inhibition: at or above 10% gives YES, strictly below gives NO.

Hello, I need to know if Cc1nc(Nc2ccc([N+](=O)[O-])cc2)sc1C(=O)/C=C/c1ccc(N(C)C)cc1 has measured growth inhibition not below 10%. Thanks! NO

Now this one: COC(=O)c1nc2c(n(C)/c1=N/C(=O)Nc1ccccc1)CCCC2 NO

Now this one: CCc1ncc(C)[nH]1 NO

Now this one: c1ccc(B2OCC(C3OB(c4ccccc4)OC4COB(c5ccccc5)OC43)O2)cc1 (stereo unspecified) YES

Now this one: Cc1ccc(C(=O)C[n+]2ccccc2)c(O)c1 YES

Now this one: CCOC(=O)C(=O)C1CCCC1=O (stereo unspecified) NO

Now this one: O=c1c2c(oc(=Nc3ccccc3)n1-c1ccccc1)CC1(CCCCC1)C2 NO

Now this one: CCc1nc(-c2ccccc2)nc2c1nc(-c1ccc(C)cc1)n2Nc1ccccc1 YES

Now this one: CCCCOC(=O)CNC(=O)OC/C=C/C#CC#C/C=C/COC(=O)NCC(=O)OCCCC NO

Now this one: Cc1nc(N)[nH]c(=O)c1-n1nnc2ccccc2c1=O NO
